Entry source: ChEMBL document CHEMBL5537159

test: Volume of distribution at steady state in cynomolgus monkey at 1 mg/kg, iv administered as single dose and measured after 24 hrs; format: ADME, organism-based, Macaca fascicularis; conditions: in vivo, read-out: Vdss
Assay endpoint: Vd (L/kg)
Give a bare numeral; the unit L/kg is implied.

Input line: Could you share which Vd value was measured for `Cc1ccc(NC(=O)C[C@H](CCC(=O)O)c2noc([C@H]3C[C@@H](CC(C)(C)C)C3)c2C2CC2)c(Cl)c1` ?
Output line: 0.36

###

assay: AUCinfinity in Beagle dog at 3 mg/kg, po administered as single dose and measured after 24 hrs; type: ADME, organism-based, Canis lupus familiaris; conditions: in vivo
Assay endpoint: AUC(0-inf) (µM·h)
Give a bare numeral; the unit µM·h is implied.

Input line: Could you share which AUC(0-inf) value was measured for `Cc1ccc(NC(=O)C[C@H](CCC(=O)O)c2noc([C@H]3C[C@@H](CC(C)(C)C)C3)c2C2CC2)c(Cl)c1` ?
Output line: 118

###

assay: Metabolic stability in human liver microsomes assessed as compound remaining at 5 umol/L measured after 60 mins by UPLC/MS analysis; format: ADME, Microsome; conditions: dose 5 µmol/L, read-out: Stability
Entries are grouped by remaining at 1 h, 5 µM into these classes: low value (below 50%), medium value (50% to below 80%), high value (80% or more)

For orientation, consider the following solved cases.
Compound | Classification
Cc1ccc(NC(=O)C[C@H](Cc2nnn[nH]2)c2noc([C@H]3C[C@@H](CC(C)C)C3)c2C2CC2)c(C)c1 | low value
CC(C)C[C@H]1C[C@@H](c2onc([C@@H](CC(=O)O)CC(=O)Nc3ccc(F)cc3Cl)c2C2CC2)C1 | medium value
Cc1ccc(NC(=O)CCc2nnc([C@H]3C[C@@H](CC(C)C)C3)n2C2CC2)c(C)c1 | low value
Cc1ccc(NC(=O)C[C@H](CCC(=O)O)n2ncc([C@H]3C[C@@H](CC(C)(C)C)C3)c2C2CC2)c(Cl)c1 | low value
Cc1ccc(NC(=O)C[C@@H](c2noc([C@H]3C[C@@H](CC(C)C)C3)c2C2CC2)C(C)(C)CC(=O)O)c(C)c1 | medium value

Input line: Class (by measured remaining at 1 h, 5 µM) for `Cc1ccc(NC(=O)C[C@H](CC(=O)O)c2noc([C@H]3C[C@@H](CC(C)C)C3)c2C2CC2)c(F)c1`
Output line: medium value

Input line: Class (by measured remaining at 1 h, 5 µM) for Cc1ccc(NC(=O)CC(c2nnc([C@H]3C[C@@H](CC(C)C)C3)n2C2CC2)C2CNC2)c(C)c1.Cl (mixture of isomers)
Output line: high value

Input line: Class (by measured remaining at 1 h, 5 µM) for `CCC(CC)C[C@H]1C[C@@H](c2onc([C@@H](CC(=O)O)CC(=O)Nc3ccc(C)cc3C)c2C2CC2)C1`
Output line: high value

Input line: Class (by measured remaining at 1 h, 5 µM) for `Cc1cc(C)cc(NC(=O)C[C@H](CC(=O)O)c2noc([C@H]3C[C@@H](CC(C)C)C3)c2C2CC2)c1`
Output line: medium value

Input line: Class (by measured remaining at 1 h, 5 µM) for `Cc1cc(C)c(C)c(NC(=O)C[C@H](CC(=O)O)c2noc([C@H]3C[C@@H](CC(C)C)C3)c2C2CC2)c1`
Output line: medium value

Input line: Class (by measured remaining at 1 h, 5 µM) for `Cc1cccc(NC(=O)C[C@H](CC(=O)O)c2noc([C@H]3C[C@@H](CC(C)C)C3)c2C2CC2)c1C`
Output line: medium value

Input line: Class (by measured remaining at 1 h, 5 µM) for `Cc1ccc(NC(=O)C[C@@H](c2noc([C@H]3C[C@@H](CC(C)C)C3)c2C2CC2)C(C)(C)C(=O)O)c(C)c1`
Output line: medium value
